- Test system: Plasmodium berghei
- Method Description: Screen against P. berghei liver stage (PbLuc), transformed with Luciferase, at 10uM
- Format: functional, HepG2
- Reported Conditions: tested at 10 uM
The campaign covered roughly 69,000 compounds. About 8,600 (12%) showed an effect of 50% or more. The sample holds strong results, similar compounds and a random draw of the others, so the mix is not that of the screen.
Catalogue of compounds with associated INHIBITION
Provide only the numeric value, understood in %.

Compound: COc1ccc(S(=O)(=O)N2CCOC(Cn3ccnc3)C2)cc1 (stereo unspecified)
Unit Label: %
Observed Value: 8.12

Prompt: Lab request: please report INHIBITION under test system Plasmodium berghei for CCC(CO)N(Cc1cccc(-n2cccn2)c1)Cc1ccccn1 (stereo unspecified)
Completion: 25.5

Prompt: Query CCOC(=O)c1ccc(S(=O)(=O)NCC(CC)N2CCCC2)cc1 (stereo unspecified) next
Completion: -9.2

Prompt: Query `COCCNC(=O)CCNc1cc(C)nc(-c2ccncc2)n1` next
Completion: 24

Prompt: Query `COc1cccc(CNc2cc(C)nc(-c3ccncc3)n2)c1O` next
Completion: 78.9

Prompt: Query CCC(CO)N(Cc1cccc(-n2cccn2)c1)Cc1cccs1 (stereo unspecified) next
Completion: 53.2

====

- System: Plasmodium berghei
- Method Description: Screen against P. berghei liver stage (PbLuc), transformed with Luciferase, at 10uM
- Format: functional, HepG2
- Reported Conditions: tested at 10 uM
In all, about 69,000 compounds went through this assay and about 8,600 (12%) showed an effect of 50% or more. This excerpt belongs to a sample that is enriched for strong results.
Quantity Measured: INHIBITION (%)
Provide only the numeric value, understood in %.

Molecule: COCCCn1ccc(NS(=O)(=O)c2cc(F)c(C)cc2F)n1
Observed Value: 23.1

Molecule: O=C(c1ccoc1)N1C[C@@H]2[C@@H](C1)OCC(=O)N2Cc1cccnc1
Observed Value: 16.8

Molecule: Cc1ncc(CNC2CC(=O)N(CCc3cccc(Cl)c3)C2)n1C (centres undefined)
Observed Value: 60.5

Molecule: Cc1cnn(C2CCCN(C(=O)CCCOc3ccccc3F)C2)c1 (centres undefined)
Observed Value: -27.8

Molecule: CCc1onc(C)c1C(=O)N1CCC(c2cc3ncccc3cn2)CC1
Observed Value: 17.1

Molecule: O=C(c1cscn1)N1CCC2(COc3ncccc3S(=O)(=O)N2)C1 (centres undefined)
Observed Value: 48.2

Molecule: CC(C)c1cc(C(=O)NCCc2nc(-c3ccncc3)n[nH]2)[nH]n1
Observed Value: 5.7

Molecule: Cc1cc(C(C)NCCN2CCC(N(C)C)CC2)c(C)s1 (centres undefined)
Observed Value: 46.6

Molecule: Cc1ccc(N2CCCC(NCC(=O)Nc3cc(C)nn3C)C2)nn1 (centres undefined)
Observed Value: 21

Molecule: Fc1ccc(F)c(CN2CCC(c3cc4ncccc4cn3)CC2)c1
Observed Value: 63.8

Prompt: What value of measured INHIBITION is listed for `COC1CCN(CCNc2ncc(Br)cc2C)CC1` ?
Completion: 41.5

Prompt: Query O=C(C1CCCCC1)N1CCC2(COc3ncccc3S(=O)(=O)N2)C1 (centres undefined) next
Completion: 50.7

Prompt: Query `COCCCNC(=O)Cc1nc(-c2ccncc2)n[nH]1` next
Completion: 77.7

Prompt: Query `Fc1cccc(CN2CCC(c3cc4ncccc4cn3)CC2)c1F` next
Completion: 52.7
